# PROTOCOL_TEXT: Pharmacokinetics in female BALB/c nude mice bearing A375 xenografts, 1 day dosing (PK and PD study): plasma, tumor and brain concentrations, AUC
# Type: in vivo
# TEST_PARAMETERS: mouse, brain, po, 1.5 mg/kg, 1.5 mg/kg p.o. BID × 1 day; post 2nd dose; 10 h; read-out: Mean Concentration in Brain ± SEM
MEASURED_ENDPOINT: concentration at 10 h (ng/g)

INSERT INTO measurements (smiles_text, observed_result) VALUES
  ('CCN(C)S(=O)(=O)Nc1ccc(F)c(Oc2ccc3ncn([C@H]4COC5(CCN(C6CC7(C6)CN(c6cc8c(cc6F)c(N6CCC(=O)NC6=O)nn8C)C7)CC5)C4)c(=O)c3c2)c1C#N', 9.78);
